Tested on: Mycobacterium tuberculosis
TEST: Antimycobacterial activity against Mycobacterium tuberculosis H37Rv at MIC concentration after up to 28 days
Assay type: functional
inhibition (INH) for assorted compounds

- SMI: "CO[C@H]1/C=C/O[C@@]2(C)Oc3c(C)c(O)c4c(O)c(c(/C=N/N5CCN(C)CC5)c(O)c4c3C2=O)NC(=O)/C(C)=C\\C=C\\[C@H](C)[C@H](O)[C@@H](C)[C@@H](O)[C@@H](C)[C@H](OC(C)=O)[C@@H]1C"
  UNIT OF MEASURE: "%"
  inhibition (INH): 98
- SMI: "Cc1ccc(-c2nnc(-c3cccnc3)n2Nc2nc3ccc(Br)cc3s2)cc1"
  UNIT OF MEASURE: "%"
  inhibition (INH): 99
- SMI: "Cc1ccc(-c2nnc(-c3cccnc3)n2Nc2nc3ccc([N+](=O)[O-])cc3s2)cc1"
  UNIT OF MEASURE: "%"
  inhibition (INH): 98
- SMI: "Cc1ccc2nc(NN)sc2c1"
  UNIT OF MEASURE: "%"
  inhibition (INH): 98
- SMI: "NNc1nc2ccc(Br)cc2s1"
  UNIT OF MEASURE: "%"
  inhibition (INH): 97
- SMI: "NNc1nc2ccc([N+](=O)[O-])cc2s1"
  UNIT OF MEASURE: "%"
  inhibition (INH): 99
- SMI: "NNc1nc2c([N+](=O)[O-])cccc2s1"
  UNIT OF MEASURE: "%"
  inhibition (INH): 98
- SMI: "NNc1nc2ccc(F)cc2s1"
  UNIT OF MEASURE: "%"
  inhibition (INH): 98
- SMI: "NNc1nc2ccc(Cl)cc2s1"
  UNIT OF MEASURE: "%"
  inhibition (INH): 99
- SMI: "Cc1ccc(-c2nnc(-c3cccnc3)o2)cc1"
  UNIT OF MEASURE: "%"
  inhibition (INH): 98
- SMI: "NNc1nc2cc(Cl)c(Cl)cc2s1"
  UNIT OF MEASURE: "%"
  inhibition (INH): 99
